- experimentalParameters: 298.15 K; 101.33 kPa; Liquid; Buoyancy - hydrostatic balance
I'd appreciate it if you could supply mass density values for the items below.
One number for each entry, in kg/m3.

Example compounds with recorded mass density:
Note down mass density recorded for CC(C)c1ccccc1 [isopropylbenzene]
864.115

Note down mass density recorded for CC(=O)CC(C)C [4-methylpentan-2-one]
800.589

Note down mass density recorded for CO [methanol]
791.814

Note down mass density recorded for CCCCO [butan-1-ol]
805.881

Count: 3. Required value per item: mass density.
1. CC(C)CO [2-methyl-1-propanol]
2. CN(C)C=O [dimethylformamide]
3. CC#N [acetonitrile]

801.652
944.689
785.712

---

I'd appreciate it if you could supply refractive index values for the items below.
- methodNotes: refractive index (Na D-line) (dimensionless)
- experimentalParameters: 298.15 K; 101.33 kPa; Liquid; Standard Abbe refractometry
Numbers only.

Example molecules with recorded refractive index:
Note down refractive index recorded for CN(C)C=O [dimethylformamide]
1.4279

Note down refractive index recorded for `CO`
1.3279

Count: 5. Required value per item: refractive index.
1. CCCCO
2. O
3. CC#N
4. CC(=O)CC(C)C
5. CC(C)CO

[1.3975, 1.3324, 1.3452, 1.3964, 1.394]

Note down refractive index recorded for `CC(C)c1ccccc1`
1.4907
